ASSAY REMARKS: Components of the Cytosolic LPS Sensing Pathway: Gene Identification via Genome-wide siRNA Screen
MEASUREMENT CONTEXT: RAW264.7 macrophages, IL-1a HTRF, actives lie on both sides, screened at 100 nM (by protocol), cells primed 5 h with Pam3CSK4 first
Out of some 53,000 sequences screened, about 3,700 (7%) were called active.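 The calls were made as follows: active = gene knockdowns whose robust z-score for IL-1 alpha signal is at least 2 or at most -2, so actives lie on both sides; inactive = the rest.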 Many of the other results were omitted from the sample, so actives are more common in it than they were.
Mark one answer only. Choices: active, inactive

Completed entries (count: 5):
GCCUAGUGACCCUUUACUATT against Stx1a
inactive
GGGAAAUGACCUUCAUUGGTT against Rbl2
inactive
GCACCUCCUGGGAUUACAUTT against Crp
inactive
CCAAAACUUUCCACUCUAATT against Ttc32
inactive
GCUCCAUGAAUGUCCAACATT against Sphkap
active

API: the following record is the query input.
Field: outcome | Entry: CGAGACAGUUUCCAUAGCGTT against Spen inactive

* * *

ASSAY REMARKS: Components of the Cytosolic LPS Sensing Pathway: Gene Identification via Genome-wide siRNA Screen
MEASUREMENT CONTEXT: RAW264.7 macrophages, IL-1a HTRF, actives lie on both sides, screened at 100 nM (by protocol), cells primed 5 h with Pam3CSK4 first
Out of some 53,000 sequences screened, about 3,700 (7%) were called active. This excerpt belongs to a sample that is enriched for actives.
Think of 0.2 as a floor: if z-score stands on it or above, it is rule met; beneath it, rule not met.

Use the examples below as a reference point.
GCUUUUCAGUCUCAUAGUGTT against Huwe1
rule met
CCAAUGCUUGUGAUAAGCCTT against Krt33a
rule not met
GGCUUCAAAGCAUGACCAGTT against Ccr1
rule not met

z-score >= 0.2 for GCAACACCUUAUGUUUCAUTT against Cab39 ? rule met

Quick check: does GGCUAAAACACUUAUCAAUTT against Poteg have z-score greater than or equal to 0.2? rule not met

Determine whether this sequence has z-score no lower than 0.2: GGCCUUUCAUGAAAGCUCATT against Ublcp1 rule not met

Kindly determine if z-score recorded for GGUAAUAAGUCCCAUUUUCTT against Prpmp5 is above or exactly 0.2. rule met

Quick check, z-score >= 0.2? GGAAGUAGCUUAUUGUUCUTT against Polr2b rule not met

* * *

ASSAY REMARKS: Components of the Cytosolic LPS Sensing Pathway: Gene Identification via Genome-wide siRNA Screen
MEASUREMENT CONTEXT: RAW264.7 macrophages, IL-1a HTRF, actives lie on both sides, screened at 100 nM (by protocol), cells primed 5 h with Pam3CSK4 first
Out of some 53,000 sequences screened, about 3,700 (7%) were called active. This excerpt belongs to a sample that is enriched for actives.
Using z-score as the sorting value, the categories are LOW: < -0.3; MID: ≥ -0.3 and < 0.5; HIGH: ≥ 0.5

GGAAAUGUACAUCAUCAAGTT against Cnga2
LOW
GCCAUGGCAUAAAAACUGGTT against P2rx6
LOW
GGUACAAUGUUCAUACCAATT against Rab9b
HIGH
CCAUCUACAAACUUUGGCCTT against Sacs
HIGH
CCUGUAUACUAUCACUUGUTT against Casp8
MID

Assign a category based on measured z-score for GGAUUAAAGAAAGACAUUGTT against Yme1l1 and give only the class name. LOW

Which of the defined bands does the recorded z-score of CCGACCAGAAGCUUUAAAGTT against Msrb1 sit within? HIGH

Class for CCUCCAGAGUAUUGUCUAGTT against Ppfia3 ? HIGH

* * *

Reported values of z-score for individual entries
ASSAY REMARKS: Components of the Cytosolic LPS Sensing Pathway: Gene Identification via Genome-wide siRNA Screen
MEASUREMENT CONTEXT: RAW264.7 macrophages, IL-1a HTRF, actives lie on both sides, screened at 100 nM (by protocol), cells primed 5 h with Pam3CSK4 first
Among all 53,000 sequences or so, about 3,700 (7%) were called active. Many of the other results were omitted from the sample, so actives are more common in it than they were.

Below: 10 sequences and their reported z-score.
GGCAGCAGAGAAGAAAGCCTT against Pld3
-3.16 (active)
CCUAAGAUGAUCGUAGGCUTT against Olfr1221
-0.643 (inactive)
GGUGCAGUUUCUCCUCUUUTT against Pla1a
2.09 (active)
CCCUCGUUGAAUUAAACUUTT against Zfp385b
0.88 (inactive)
CCCUGAGAAGGAUGCGAAATT against Mgat4b
0.44 (inactive)
GCUUCUGUAAAUCCCAUAUTT against Olfr26
-0.0814 (inactive)
GGUCAGGUCUUUUUAUACATT against Zfp354a
2.56 (active)
CCCUAAGAGAGCCUAAAACTT against Serpina3c
-1.12 (inactive)
GGGAAUGGAAGAAUAUUCUTT against Dppa2
1.61 (inactive)
GCAAGAAGUUCCUAUCAUCTT against Polr2b
-1.67 (inactive)

Tell me measured z-score for GCAGCUUCAAGAGAGCCAUTT against Rhbdl1 please. -0.604 (inactive)

State, in one line, measured z-score of GGAACCAGGUAGCAGAUCUTT against Cdk2ap2 -2.61 (active)

For the sequence GGAGGUCAAAGUAAACUGGTT against Tial1 , report z-score. 2.2 (active)

Return reported z-score. Input sequence: UGGACUUGCUUCUCACAUCTT against Olfr694 -2.22 (active)

Note z-score for the sequence shown: GCCAAUGAACCGAUCUCUGTT against Ep400 -2.13 (active)

Report measured z-score; entry is GCUCCUAUGCAAACAUUGCTT against Olfr1390 0.489 (inactive)

Return reported z-score. Input sequence: GGUAAAGACUGGAUGGCUATT against Art5 2.14 (active)

* * *

ASSAY REMARKS: Components of the Cytosolic LPS Sensing Pathway: Gene Identification via Genome-wide siRNA Screen;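 also: robust z of the log signal after scaling to non-targeting control siRNA wells of the plate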
MEASUREMENT CONTEXT: RAW264.7 macrophages, IL-1a HTRF, actives lie on both sides, screened at 100 nM (by protocol), cells primed 5 h with Pam3CSK4 first
In all, about 53,000 sequences went through this assay and about 3,700 (7%) were called active.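 The calls were made as follows: active = gene knockdowns whose robust z-score for IL-1 alpha signal is at least 2 or at most -2, so actives lie on both sides; inactive = the rest.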 Many of the other results were omitted from the sample, so actives are more common in it than they were.
Please answer using one outcome listed in active, inactive

Worked set:
GGAGAAACCAGCUAAAGGATT against Car9
inactive
GCACUUUAAAAGAAUCACUTT against Slc2a12
active
GCUCUGCUAUCGUGAUCUGTT against Kctd13
inactive
CCGAGUAAUUGGAAGUGGUTT against Ldha
active
CGGGCAAUGUCAGAUUGUGTT against Vmn1r75
inactive

Could you please tell me the result logged for GGAUAUCAGGGUUGUUAAGTT against Txnl4b in this assay? inactive

How did this test come out for GGCCUGACUUUUUGUCUUATT against Klhl15 ? inactive

Which outcome did this test record for the sequence GGAUGACUACAAAUGCAAATT against E230015B07Rik ? inactive

* * *

ASSAY REMARKS: Components of the Cytosolic LPS Sensing Pathway: Gene Identification via Genome-wide siRNA Screen;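 also: robust z of the log signal after scaling to non-targeting control siRNA wells of the plate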
MEASUREMENT CONTEXT: RAW264.7 macrophages, IL-1a HTRF, actives lie on both sides, screened at 100 nM (by protocol), cells primed 5 h with Pam3CSK4 first
The whole screen tested about 53,000 sequences, of which about 3,700 (7%) were called active. Shown is part of a subset that was picked to be rich in actives.
If the reported z-score equals or exceeds -0.6, assign 1. If not, assign 0.

hey, is z-score for this one >= -0.6? GCUACUCCUUAGAACACGGTT against Spry1 1

* * *

ASSAY REMARKS: Components of the Cytosolic LPS Sensing Pathway: Gene Identification via Genome-wide siRNA Screen;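 also: robust z of the log signal after scaling to non-targeting control siRNA wells of the plate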
MEASUREMENT CONTEXT: RAW264.7 macrophages, IL-1a HTRF, actives lie on both sides, screened at 100 nM (by protocol), cells primed 5 h with Pam3CSK4 first
Out of some 53,000 sequences screened, about 3,700 (7%) were called active. Shown is part of a subset that was picked to be rich in actives.
Classes (z-score): class 0: < -0.5; class 1: ≥ -0.5 and < 0.5; class 2: ≥ 0.5

Worked examples, 6 sequences total:
CCAAAUGAGGCUACCACAATT against Socs7
class 1
GCUAACAUUGUAAAUGCACTT against Dmrta1
class 1
GCAGUUCAUGUCCUGAAUATT against Olfr308
class 0
GGUCUAUCGCUUGCUUUUUTT against Abca2
class 2
GAUCUGGCUGCUUCUUACCTT against Porcn
class 0
GGAAACAUAACCUUCAAUGTT against Wdr3
class 2

Please find the next sequence below.
Class for GGAUUUCACUUGAGAAUGATT against Grem1 ? class 0

* * *

In this section, each of the sequences is paired with its reported z-score.
ASSAY REMARKS: Components of the Cytosolic LPS Sensing Pathway: Gene Identification via Genome-wide siRNA Screen;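 also: robust z of the log signal after scaling to non-targeting control siRNA wells of the plate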
MEASUREMENT CONTEXT: RAW264.7 macrophages, IL-1a HTRF, actives lie on both sides, screened at 100 nM (by protocol), cells primed 5 h with Pam3CSK4 first
The campaign covered roughly 53,000 sequences. About 3,700 (7%) were called active. Shown is part of a subset that was picked to be rich in actives.

Examples from the recorded data:
GGCUCAAAGACUGAAUCCCTT against Recql4
0.309 (inactive)
GCUUUUGACGAGCAAGCAGTT against Eme1
1.47 (inactive)
GGACUGAACCCAAAUGCCUTT against Chtf8
-1.45 (inactive)
GGGAAAAAGAACAAGAUCATT against Cep57l1
-0.799 (inactive)

# return recorded z-score for entry GGAGAAAUUGCCUUUGAUCTT against Pdik1l 0.416 (inactive)

Given UGGAAGCCUUAUGCCGUCUTT against Gpr31b , respond with its z-score. 0.895 (inactive)

Determine from records and report z-score for GUAGAGUGAUGAGAGGCCUTT against Vmn1r-ps8 -0.475 (inactive)

Check the records and state z-score for CGAAUCAUGUGUUUGCACATT against Camkk2 1.21 (inactive)

Item GGCCUUCCUCUUCUGCUUATT against Csf3r : provide z-score 0.157 (inactive)

Given the sequence GGGUGAUCUGUAGUAUUUUTT against Olfr574 , write its reported z-score. -0.879 (inactive)

Write down z-score measured for item GCCUCUCAACAUGAAUUAATT against Gm9918 0.524 (inactive)

Please list z-score recorded for the sequence GGCCUCCUAACAAUUCAGCTT against Foxp1 0.0693 (inactive)

Complete the entry with z-score for GGAAGCCCACUACAACAAUTT against Krt19 -0.236 (inactive)

Supply recorded z-score for GCGGCAGUAAAUUGUGAGGTT against Grin3b here. 1.4 (inactive)

Entry UUGGCUGCAUUAUCAUGAGTT against Olfr311 needs its z-score filled in; supply it. -0.419 (inactive)

Report z-score, nothing else, for this sequence: GGCAAUGUGCCCAAUAUCATT against Rfc2 -1.61 (inactive)

Input GGACUUGAAAGAUAAAUAGTT against Crx , output reported z-score. 0.163 (inactive)

Output measured z-score for this item: GCACCUGAUUAAGUUGCAUTT against Med15 -2.11 (active)

Output measured z-score for this item: GCCCAAGACGAAAAGAUACTT against Mrpl9 0.662 (inactive)

Data origin: PubChem BioAssay AID1508600
